# Test system: SW-620
# ASSAY DETAILS: NCI tumour cell line growth inhibition, 48 h
Active and inactive are the calls of the source. Cut-off read from the data, not from the text of the source: active = GI50 up to about 1.1 µM and inactive = higher.
Here, each record is paired with measured GI50 data.
VALUE TYPE: GI50

>  <COMPOUND>
CC(C)(C)NCC(O)COc1cccc2[nH]c(C#N)cc12 (stereo not drawn)

>  <EXPERIMENTAL RESULT>
> 100 µM (inactive)

$$$$
>  <COMPOUND>
CC1OC(OC2C(CO)OC(O[C@H]3CC[C@@]4(C)C(=CC[C@H]5[C@@H]6C[C@@H]7O[C@](O)(CC[C@H](C)COC8OC(CO)C(O)C(O)C8O)[C@@H](C)[C@@H]7[C@@]6(C)CC[C@@H]54)C3)C(OC3OC(C)C(O)C(O)C3O)C2O)C(O)C(O)C1O (stereo partly drawn)

>  <EXPERIMENTAL RESULT>
0.644 µM (active)

$$$$
>  <COMPOUND>
CC1(C)C(=NN=C(N)N)C(C)(C)C1=NN=C(N)N

>  <EXPERIMENTAL RESULT>
> 100 µM (inactive)

$$$$
>  <COMPOUND>
C=C1CC(Cn2ccc(=O)[nH]c2=O)(c2ccc(Cl)cc2)OC1=O (stereo not drawn)

>  <EXPERIMENTAL RESULT>
1.83 µM (inactive)

$$$$
>  <COMPOUND>
Cc1ccc2c(c1)Nc1cc(C(F)(F)F)ccc1[PH]2=O (stereo not drawn)

>  <EXPERIMENTAL RESULT>
23.4 µM (inactive)

$$$$
>  <COMPOUND>
CC(CCCCNC(=O)OC(C)(C)C)NC(=O)NC(C)CCCCNC(=O)OC(C)(C)C (stereo not drawn)

>  <EXPERIMENTAL RESULT>
> 100 µM (inactive)

$$$$
>  <COMPOUND>
CN(C)CCCNC(=O)c1cc2/c(=C\c3ccc(N(C)C)cc3)c3ccccc3n2[n+]1C

>  <EXPERIMENTAL RESULT>
31.1 µM (inactive)

$$$$
>  <COMPOUND>
CCN(CC)Cc1nc(C2CCC([N+](=O)[O-])O2)no1 (stereo not drawn)

>  <EXPERIMENTAL RESULT>
19.4 µM (inactive)

$$$$

* * *

# System: OVCAR-5
# ASSAY DETAILS: NCI tumour cell line growth inhibition, 48 h
Activity calls are given as the source filed them. Rule as the data show it: active = GI50 up to about 1.1 µM and inactive = higher.

>  <COMPOUND>
O=C1NC(c2cccc3ccccc23)Nc2ccc(Cl)cc21 (stereo unspecified)

>  <GI50>
0.0244 µM (active)

$$$$
>  <COMPOUND>
O=C(O)CC(CC(=O)O)C(=O)O

>  <GI50>
> 100 µM (inactive)

$$$$
>  <COMPOUND>
N/C(=N\O)N/N=C\c1cc([N+](=O)[O-])cc([N+](=O)[O-])c1O

>  <GI50>
> 30.5 µM (inactive)

$$$$
>  <COMPOUND>
CC(C)OC(=O)c1ccc(NCc2cc(O)ccc2O)cc1Cl

>  <GI50>
8.43 µM (inactive)

$$$$
>  <COMPOUND>
COc1ccc(Nc2nn3c(=O)c4c(C)c(C)sc4nc3s2)cc1

>  <GI50>
52.4 µM (inactive)

$$$$
>  <COMPOUND>
N#Cc1cccc2c1Nc1ccccc1S2

>  <GI50>
> 100 µM (inactive)

$$$$
>  <COMPOUND>
O=C(O)c1cc2ccccc2c(/N=N/c2ccccc2)c1O

>  <GI50>
24.9 µM (inactive)

$$$$
>  <COMPOUND>
Clc1ccc(Nc2nnc(CNc3ccc(-c4nnc(Nc5ccc(Cl)cc5)o4)cc3)o2)cc1

>  <GI50>
19.6 µM (inactive)

$$$$
>  <COMPOUND>
COc1cc(Nc2nc3cc(C)ccc3nc2-c2ccccc2)cc(OC)c1OC

>  <GI50>
> 100 µM (inactive)

$$$$
>  <COMPOUND>
O=C1OC(c2ccccc2)=N/C1=C\c1ccc(Cl)cc1

>  <GI50>
> 100 µM (inactive)

$$$$
>  <COMPOUND>
Nc1c(S(=O)(=O)O)cc(Nc2cccc(S(N)(=O)=O)c2)c2c1C(=O)c1ccccc1C2=O

>  <GI50>
> 100 µM (inactive)

$$$$

* * *

# System: ACHN
# ASSAY DETAILS: NCI tumour cell line growth inhibition, 48 h
The source made the active and inactive calls. No stated cut-off is given here; in the data, active = GI50 up to about 1.1 µM and inactive = higher.
Classes used: active, inactive

>  <MOLECULE>
O=C(O)CN(CCNC(=O)OCC1c2ccccc2-c2ccccc21)CCNC(=O)OCC1c2ccccc2-c2ccccc21

>  <ASSIGNED LABEL>
inactive

$$$$
>  <MOLECULE>
COC(=O)c1c(C)cccc1C1CN=NC12Cc1ccccc1C2=O (stereo not drawn)

>  <ASSIGNED LABEL>
inactive

$$$$
>  <MOLECULE>
CCOC(=O)C(C)(C)Oc1ccc(Cl)cc1 [CLOFIBRATE]

>  <ASSIGNED LABEL>
inactive

$$$$
>  <MOLECULE>
O=C(O)CC(CC(=O)O)C(=O)O [TRICARBALLYLIC ACID]

>  <ASSIGNED LABEL>
inactive

$$$$
>  <MOLECULE>
NC(=O)C1(c2ccccc2)Nc2ccccc2S1 (stereo not drawn)

>  <ASSIGNED LABEL>
inactive

$$$$
>  <MOLECULE>
Cc1cccc(C[C@@]2(SCc3ccccc3)C(C)(C)[C@@H]3CC[C@@]2(C)C3)n1

>  <ASSIGNED LABEL>
inactive

$$$$
>  <MOLECULE>
OC12CC3c4ccccc4NC3C3Oc4cccc5c4C31CCN(CC1CC1)C2C5 (stereo not drawn)

>  <ASSIGNED LABEL>
inactive

$$$$
>  <MOLECULE>
Cc1cc2c(=O)cc(-c3cccs3)oc2c(C(=O)O)c1C

>  <ASSIGNED LABEL>
inactive

$$$$
>  <MOLECULE>
NC(=O)C12CC3CC(CC(Br)(C3)C1)C2

>  <ASSIGNED LABEL>
inactive

$$$$
>  <MOLECULE>
Cc1nc(C)c(C(=O)NNC(N)=S)cc1C(=O)NNC(N)=S

>  <ASSIGNED LABEL>
inactive

$$$$
>  <MOLECULE>
Oc1ccc(NCc2cc(O)ccc2O)cc1

>  <ASSIGNED LABEL>
inactive

$$$$
>  <MOLECULE>
COc1ccc2nc3cc(Cl)ccc3c(NCCC[N+](C)(C)CCCCCCCCCCCCCCCC[N+](C)(C)CCCNc3c4ccc(Cl)cc4nc4ccc(OC)cc34)c2c1

>  <ASSIGNED LABEL>
inactive

$$$$
>  <MOLECULE>
CC(=O)OCC1OC(N2C(c3ccccc3)=CC(c3cccs3)C(C#N)=C2S)C(OC(C)=O)C(OC(C)=O)C1OC(C)=O (stereo not drawn)

>  <ASSIGNED LABEL>
inactive

$$$$
>  <MOLECULE>
CC(C)COP(=O)(OCC(C)C)C(NS(=O)(=O)c1ccccc1)(C(F)(F)F)C(F)(F)F

>  <ASSIGNED LABEL>
inactive

$$$$
>  <MOLECULE>
O=C1OC(c2ccccc2)=N/C1=C\c1ccc(Cl)cc1

>  <ASSIGNED LABEL>
inactive

$$$$
>  <MOLECULE>
Clc1ccc(OCc2nnc(CCCCCCCCc3nnc(COc4ccc(Cl)cc4Cl)n3Nc3ccccc3)n2Nc2ccccc2)c(Cl)c1

>  <ASSIGNED LABEL>
inactive

$$$$
>  <MOLECULE>
CCCCOC(=O)NC(=O)c1cn(CCCOC(=O)CCCCCCCCC(=O)OCCCn2cc(C(=O)NC(=O)OCCCC)c(=O)[nH]c2=O)c(=O)[nH]c1=O

>  <ASSIGNED LABEL>
inactive

$$$$
>  <MOLECULE>
CCN1CCC(O)(c2ccc(Oc3ccccc3)cc2)C(C(=O)c2ccc(Oc3ccccc3)cc2)C1 (stereo not drawn)

>  <ASSIGNED LABEL>
inactive

$$$$
>  <MOLECULE>
COc1cc2c(c(OC)c1OC)C(=O)[C@@H]1[C@H]2N1C(=O)NCCCl

>  <ASSIGNED LABEL>
inactive

$$$$
>  <MOLECULE>
COc1ccc(C2=NN(C(=O)COc3ccc(Cl)cc3)C(O)(c3ccc(Cl)cc3)C2)cc1 (stereo not drawn)

>  <ASSIGNED LABEL>
inactive

$$$$
>  <MOLECULE>
C(=N\NC1=NCCCN1)/c1ccc(-c2cn3cc(/C=N/NC4=NCCCN4)ccc3n2)cc1

>  <ASSIGNED LABEL>
inactive

$$$$
>  <MOLECULE>
[N-]=[N+]=Nc1c(C=O)c(=O)n2c3c(cccc13)CCC2

>  <ASSIGNED LABEL>
inactive

$$$$
>  <MOLECULE>
CCn1c2c(n(CC)c1=S)-c1c(n(CC)c(=S)n1CC)SSSS2

>  <ASSIGNED LABEL>
inactive

$$$$
>  <MOLECULE>
COc1ccc([C@@]23Oc4cc(OC)cc(OC)c4[C@]2(O)[C@H](O)[C@H](C(=O)N(C)C)[C@H]3c2ccccc2)cc1 [ROCAGLAMIDE]

>  <ASSIGNED LABEL>
active

$$$$
>  <MOLECULE>
O=C(c1ccccc1)C1C(C(=O)c2ccccc2)N1Cc1ccccc1 (stereo not drawn)

>  <ASSIGNED LABEL>
inactive

$$$$
>  <MOLECULE>
COC(=O)c1c(C#N)[nH]c(-c2ccsc2)c1C(=O)OC

>  <ASSIGNED LABEL>
inactive

$$$$
>  <MOLECULE>
CC(=O)c1cc2c(s1)C(=O)c1sccc1C2=O

>  <ASSIGNED LABEL>
active

$$$$
>  <MOLECULE>
C=C1c2[nH]c3c([N+](=O)[O-])c(OC)ccc3c2CCN1C(C)=O

>  <ASSIGNED LABEL>
inactive

$$$$
>  <MOLECULE>
C=C(CN(C)C)C(=O)c1ccc(C(=O)C(=C)CN(C)C)cc1

>  <ASSIGNED LABEL>
inactive

$$$$
>  <MOLECULE>
C#CCOCn1ccc(=O)[nH]c1=O

>  <ASSIGNED LABEL>
inactive

$$$$
>  <MOLECULE>
O=C(O)CSc1nnc(Cc2ccccc2)[nH]1

>  <ASSIGNED LABEL>
inactive

$$$$
>  <MOLECULE>
c1ccc2c(c1)c1c(n2CCOCCN2CCCC2)CCCC1

>  <ASSIGNED LABEL>
inactive

$$$$
>  <MOLECULE>
CN(CCNCc1cn(C)c2c1ccc1ccccc12)CCNCc1cn(C)c2c1ccc1ccccc12

>  <ASSIGNED LABEL>
inactive

$$$$
>  <MOLECULE>
CN(CCCCCl)P(=O)(OCC1=CC(=O)c2ccccc2C1=O)OC[C@H]1O[C@@H](n2cc(F)c(=O)[nH]c2=O)C[C@@H]1O (stereo partly drawn)

>  <ASSIGNED LABEL>
active

$$$$
>  <MOLECULE>
C=CCOC(=O)CCCCCCCCCCCCCCCOC(=O)c1c(CCC[C@@H](C)O[Si](C)(C)C(C)(C)C)nc([O-])[n+]2c1CC[C@H]2CC1(CC/C=C\[C@H](CC)O[Si](C(C)C)(C(C)C)C(C)C)OCCO1

>  <ASSIGNED LABEL>
inactive

$$$$
>  <MOLECULE>
COc1cc(/C=C2\C(=O)N(Cc3ccccc3)C(c3ccccc3)S2(=O)=O)cc(OC)c1OC (stereo not drawn)

>  <ASSIGNED LABEL>
inactive

$$$$
>  <MOLECULE>
Cn1cnc([N+](=O)[O-])c1Sc1nc2cccnc2[nH]1

>  <ASSIGNED LABEL>
inactive

$$$$
>  <MOLECULE>
O=C(N/N=C/C=C/c1ccc([N+](=O)[O-])o1)c1ccc(Br)s1

>  <ASSIGNED LABEL>
inactive

$$$$

Measured values drawn from ChEMBL document CHEMBL1201862 for this set.
